# Tested on: LOC_OS01G70970-cb002;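 also: purified Escherichia coli-expressed rice kinase domain construct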
# PROTOCOL_NOTES: thermal shift delta Tm vs DMSO control; higher = stronger stabilization (binding)
# EXPERIMENTAL_CONDITIONS: 12.5 µM; protein concentration 2 µM
We'd kindly ask you to apply these thermal shift delta Tm classes: lower level = under 0.4 °C, middle level = from 0.4 °C up to 0.6 °C, upper level = 0.6 °C and over

| COMPOUND | CLASS |
| --- | --- |
| CN(C)C/C=C/C(=O)Nc1ccc(C(=O)Nc2cccc(Nc3ncc(Cl)c(-c4c[nH]c5ccccc45)n3)c2)cc1 | upper level |
| O=C1Nc2ccc(I)cc2/C1=C/c1cc(Br)c(O)c(Br)c1 | upper level |

Hi, small favor: classify O=C(Nc1cccc(C(F)(F)F)c1)c1cccc2cc(Oc3cc(CO)ncn3)ccc12 by its thermal shift delta Tm when you get a moment.
middle level

Hi, small favor: classify COc1cc2c(Oc3ccc(NC(=O)C4(C(=O)Nc5ccc(F)cc5)CC4)cc3F)ccnc2cc1OCCCN1CCOCC1 by its thermal shift delta Tm when you get a moment.
upper level

Hi, small favor: classify N#C/C(=C\c1ccc(O)c(O)c1)C(=O)NCc1ccccc1 by its thermal shift delta Tm when you get a moment.
lower level

Hi, small favor: classify O=C(NCc1cccc(O)c1)Nc1nc(-c2ccncc2)cs1 by its thermal shift delta Tm when you get a moment.
middle level

Hi, small favor: classify Cn1cc(-c2ccc3nnc(C(F)(F)c4ccc5ncccc5c4)n3n2)cn1 by its thermal shift delta Tm when you get a moment.
lower level

Hi, small favor: classify CCOc1ccn(-c2ccc(F)cc2)c(=O)c1C(=O)Nc1ccc(Oc2ccnc(N)c2Cl)c(F)c1 by its thermal shift delta Tm when you get a moment.
lower level

Hi, small favor: classify COc1cc2ncnc(Nc3ccc(O)c(Br)c3)c2cc1OC by its thermal shift delta Tm when you get a moment.
upper level

Hi, small favor: classify C[C@@H](N)[C@H]1CC[C@H](C(=O)Nc2ccncc2)CC1 by its thermal shift delta Tm when you get a moment.
middle level

Hi, small favor: classify CCCNC(=O)c1cn2ncnc(Nc3cc(C(=O)NC4CC4)ccc3C)c2c1C by its thermal shift delta Tm when you get a moment.
lower level

Hi, small favor: classify O=c1nc(N2CCOCC2)oc2c(-c3cccc4c3sc3ccccc34)cccc12 by its thermal shift delta Tm when you get a moment.
lower level

Hi, small favor: classify CC(C)(CO)n1cc(C(=O)c2cncc(NC(=O)Cc3ccc(Cl)cn3)c2)c2cnc(N)nc21 by its thermal shift delta Tm when you get a moment.
lower level
